B1: library; a variant is named by its letters at N, in order (parent)
chain: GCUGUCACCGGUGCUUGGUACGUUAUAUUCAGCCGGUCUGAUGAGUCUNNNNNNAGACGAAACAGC

Variants of: B1
assay_details: normalized RNA/DNA level with ligand (relative to sTRSVctl = 100) (log10 (% of sTRSVctl)); HEK293T overexpressing SLC46A1; ligand concentration (+) RNA-Seq: 6 mM; higher = less ribozyme self-cleavage, higher mRNA level
condition: with (6R,S)-folinic acid; ligand present: yes
reported_property: normalized RNA/DNA level with ligand (log10)

* GCUGUCACCGGUGCUUGGUACGUUAUAUUCAGCCGGUCUGAUGAGUCUGGCUCAAGACGAAACAGC [GGCUCA] | 2.01
* GCUGUCACCGGUGCUUGGUACGUUAUAUUCAGCCGGUCUGAUGAGUCUAUACGUAGACGAAACAGC [AUACGU] | 2.03
* GCUGUCACCGGUGCUUGGUACGUUAUAUUCAGCCGGUCUGAUGAGUCUAACAAGAGACGAAACAGC [AACAAG] | 2.02
* GCUGUCACCGGUGCUUGGUACGUUAUAUUCAGCCGGUCUGAUGAGUCUUACAAAAGACGAAACAGC [UACAAA] | 1.99
* GCUGUCACCGGUGCUUGGUACGUUAUAUUCAGCCGGUCUGAUGAGUCUGUAUGGAGACGAAACAGC [GUAUGG] | 2.02
* GCUGUCACCGGUGCUUGGUACGUUAUAUUCAGCCGGUCUGAUGAGUCUGGGACGAGACGAAACAGC [GGGACG] | 2.06
* GCUGUCACCGGUGCUUGGUACGUUAUAUUCAGCCGGUCUGAUGAGUCUACGUUCAGACGAAACAGC [ACGUUC] | 2.02
* GCUGUCACCGGUGCUUGGUACGUUAUAUUCAGCCGGUCUGAUGAGUCUCUUUUCAGACGAAACAGC [CUUUUC] | 2.02
* GCUGUCACCGGUGCUUGGUACGUUAUAUUCAGCCGGUCUGAUGAGUCUCUCUUGAGACGAAACAGC [CUCUUG] | 2.03
* GCUGUCACCGGUGCUUGGUACGUUAUAUUCAGCCGGUCUGAUGAGUCUUGCUCGAGACGAAACAGC [UGCUCG] | 1.96
* GCUGUCACCGGUGCUUGGUACGUUAUAUUCAGCCGGUCUGAUGAGUCUCCUUAGAGACGAAACAGC [CCUUAG] | 1.96
* GCUGUCACCGGUGCUUGGUACGUUAUAUUCAGCCGGUCUGAUGAGUCUUGAACUAGACGAAACAGC [UGAACU] | 2
* GCUGUCACCGGUGCUUGGUACGUUAUAUUCAGCCGGUCUGAUGAGUCUAGUUCUAGACGAAACAGC [AGUUCU] | 2.01
* GCUGUCACCGGUGCUUGGUACGUUAUAUUCAGCCGGUCUGAUGAGUCUAUAGGAAGACGAAACAGC [AUAGGA] | 1.99
* GCUGUCACCGGUGCUUGGUACGUUAUAUUCAGCCGGUCUGAUGAGUCUGCGUCAAGACGAAACAGC [GCGUCA] | 2.08
* GCUGUCACCGGUGCUUGGUACGUUAUAUUCAGCCGGUCUGAUGAGUCUGCCGUGAGACGAAACAGC [GCCGUG] | 2.03
* GCUGUCACCGGUGCUUGGUACGUUAUAUUCAGCCGGUCUGAUGAGUCUUCUAAUAGACGAAACAGC [UCUAAU] | 2.01
* GCUGUCACCGGUGCUUGGUACGUUAUAUUCAGCCGGUCUGAUGAGUCUCUCCACAGACGAAACAGC [CUCCAC] | 2.01
* GCUGUCACCGGUGCUUGGUACGUUAUAUUCAGCCGGUCUGAUGAGUCUCAUACUAGACGAAACAGC [CAUACU] | 2.03
* GCUGUCACCGGUGCUUGGUACGUUAUAUUCAGCCGGUCUGAUGAGUCUCCUGACAGACGAAACAGC [CCUGAC] | 1.99
* GCUGUCACCGGUGCUUGGUACGUUAUAUUCAGCCGGUCUGAUGAGUCUGAGAUUAGACGAAACAGC [GAGAUU] | 2.01
* GCUGUCACCGGUGCUUGGUACGUUAUAUUCAGCCGGUCUGAUGAGUCUAGGGACAGACGAAACAGC [AGGGAC] | 1.99

Sourced from the supplement of paper PMC6757056
